Hi there, I'd appreciate the recorded pKd for every entry that follows.
- Target or test system: T1, FR3exFc (human)
- T1 construct: also called FGFR3/Fc; FR3/Fc
- T1 sequence (chain, as listed by the source limits assumed): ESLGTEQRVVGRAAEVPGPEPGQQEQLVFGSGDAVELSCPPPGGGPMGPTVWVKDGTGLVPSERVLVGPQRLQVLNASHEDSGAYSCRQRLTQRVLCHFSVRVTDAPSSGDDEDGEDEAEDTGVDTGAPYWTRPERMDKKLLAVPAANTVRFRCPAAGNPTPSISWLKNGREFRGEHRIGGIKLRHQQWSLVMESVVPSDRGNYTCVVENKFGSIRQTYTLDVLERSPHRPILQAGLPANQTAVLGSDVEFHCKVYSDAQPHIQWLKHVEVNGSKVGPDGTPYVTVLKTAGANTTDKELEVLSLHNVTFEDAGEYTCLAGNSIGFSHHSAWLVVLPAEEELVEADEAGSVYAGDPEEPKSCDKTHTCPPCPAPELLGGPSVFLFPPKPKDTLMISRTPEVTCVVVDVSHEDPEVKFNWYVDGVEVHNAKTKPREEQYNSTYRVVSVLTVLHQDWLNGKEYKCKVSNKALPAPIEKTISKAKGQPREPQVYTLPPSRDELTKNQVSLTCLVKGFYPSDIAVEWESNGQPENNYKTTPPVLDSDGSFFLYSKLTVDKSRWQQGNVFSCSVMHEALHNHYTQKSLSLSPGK
- Test protocol: BIAcore; number in parentheses taken as the monomeric Fab
Answers are plain numbers, as −log10 of the molar value.

I have 3 binders here; please give me pKd for each one.
1. MSPRO12 (Fab, V domains shown, HuCAL Fab, framework VH2_L3) VH: QVQLKESGPALVKPTQTLTLTCTFSGFSLSTSGVGVGWIRQPPGKALEWLALIDWDDDKYYSTSLKTRLTISKDTSKNQVVLTMTNMDPVDTATYYCARYHSWYEMGYYGSTVGYMFDYWGQGTLVTVSS VL: DIELTQPPSVSVAPGQTARISCSGDALGDKYASWYQQKPGQAPVLVIYDDSDRPSGIPERFSGSNSGNTATLTISGTQAEDEADYYCQSYDFDFAVFGGGTKLTVLG
2. MSPRO26 (Fab, V domains shown) VH: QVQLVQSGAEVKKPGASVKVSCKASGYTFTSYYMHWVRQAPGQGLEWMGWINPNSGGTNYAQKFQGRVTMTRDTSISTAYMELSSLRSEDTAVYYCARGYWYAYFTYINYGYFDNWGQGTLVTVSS VL: DIALTQPASVSGSPGQSITISCTGTSSDVGGYNYVSWYQQHPGKAPKLMIYDVSNRPSGVSNRFSGSKSGNTASLTISGLQAEDEADYYCQSYDNNSDVVFGGGTKLTVLG
3. MSPRO11 (Fab, V domains shown) VH: QVQLVQSGAEVKKPGASVKVSCKASGYTFTSYYMHWVRQAPGQGLEWMGWINPNSGGTNYAQKFQGRVTMTRDTSISTAYMELSSLRSEDTAVYYCARYYGSSLYHYVFGGFIDYWGQGTLVTVSS VL: DIALTQPASVSGSPGQSITISCTGTSSDVGGYNYVSWYQQHPGKAPKLMIYDVSNRPSGVSNRFSGSKSGNTASLTISGLQAEDEADYYCQSHHFYEVFGGGTKLTVLG

[7.85, 8.40, 8.40]

Return value of pKd for input MSPRO28 (Fab, V domains shown) VH: QVQLVQSGAEVKKPGSSVKVSCKASGGTFSSYAISWVRQAPGQGLEWMGGIIPIFGTANYAQKFQGRVTITADESTSTAYMELSSLRSEDTAVYYCARGGGWVSHGYYYLFDLWGQGTLVTVSS VL: DIQMTQSPSSLSASVGDRVTITCRASQGISSYLAWYQQKPGKAPKLLIYAASSLQSGVPSRFSGSGSGTDFTLTISSLQPEDFAVYYCFQYGSIPPTFGQGTKVEIKR , no commentary.
8.05

Cited source: patent US20090202547A1
